meta.source: the supplement of paper PMC4466140

Consider the following binders and their measured SPOT peptide array binding signal intensity readings.
# measured on: CaLsb4
# assay method text: SPOT peptide array binding signal intensity (averaged, normalized) (arbitrary units (background-subtracted, floor 0; scale differs between SH3 domains)); higher = stronger binding of the SH3 domain to the peptide
quantity measured: SPOT peptide array binding signal intensity

>>> value("LFMKGTPEFPKSGFS")
196
>>> value("TKIRRRPQQPLTDFT")
22.5
>>> value("WTQRRGPLVVYAEDN")
29.5
>>> value("SKIRPTPRKPSRMAT")
2040
>>> value("RLSFFFPLDPAYIRN")
45.5
>>> value("RRSKSLPITPKSIFN")
57
